# Subject of test: hM1 mAChR (Homo sapiens, UniProt P11229)
# Sequence (P11229 whole entry): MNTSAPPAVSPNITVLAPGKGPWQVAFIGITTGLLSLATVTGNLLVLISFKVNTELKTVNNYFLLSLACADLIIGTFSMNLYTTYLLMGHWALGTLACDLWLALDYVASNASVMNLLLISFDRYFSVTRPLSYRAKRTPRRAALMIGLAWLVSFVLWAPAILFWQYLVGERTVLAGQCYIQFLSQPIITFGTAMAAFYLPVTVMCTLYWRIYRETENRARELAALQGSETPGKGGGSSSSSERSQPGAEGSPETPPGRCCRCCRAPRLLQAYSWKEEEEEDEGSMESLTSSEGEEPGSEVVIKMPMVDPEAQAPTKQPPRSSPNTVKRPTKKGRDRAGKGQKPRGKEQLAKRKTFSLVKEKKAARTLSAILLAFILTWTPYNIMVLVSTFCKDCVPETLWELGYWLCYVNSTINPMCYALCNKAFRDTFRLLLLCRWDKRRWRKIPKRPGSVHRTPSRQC
# Test name: Radioligand equilibrium binding assay
Experimental endpoint: Kb (nM)
Your answer should be a plain number; it is taken to be in nM.

Which Kb value belongs to CCN(CC)C(=O)c1ccc(COc2ccccc2-c2cc(=O)n(C3CCCCC3O)cn2)cc1 (centres unmarked) [Compound 15c] ? 16200

Recorded Kb for CCNC(=O)c1ccc(COc2ccccc2-c2cc(=O)n(C3CCCCC3O)cn2)cc1 (centres unmarked) [Compound 15d] , please? 269

# input molecule: O=c1cc(-c2ccccc2OCc2ccccc2)ncn1C1CCCCC1O (centres unmarked) ; wanted: its Kb 2950

Field request: Kb | item: Cn1cc(-c2ccc(COc3ccccc3-c3cc(=O)n(C4CCCCC4O)cn3)cc2)cn1 (centres unmarked) 324

Consider now this further molecule.
What does the data say about its Kb? Entry: Cc1ccc(COc2ccccc2-c2cc(=O)n(C3CCCCC3O)cn2)cn1 (centres unmarked) 5500

The values you see were collected from paper PMC7616175.
